Biological target: T1, human CAPRIN-1 protein on the cell surfaces of human cancer cell lines and in human cancer tissues (human, UniProt Q14444 2-709); note: test concentration or dose not given here
T1 sequence (looked up): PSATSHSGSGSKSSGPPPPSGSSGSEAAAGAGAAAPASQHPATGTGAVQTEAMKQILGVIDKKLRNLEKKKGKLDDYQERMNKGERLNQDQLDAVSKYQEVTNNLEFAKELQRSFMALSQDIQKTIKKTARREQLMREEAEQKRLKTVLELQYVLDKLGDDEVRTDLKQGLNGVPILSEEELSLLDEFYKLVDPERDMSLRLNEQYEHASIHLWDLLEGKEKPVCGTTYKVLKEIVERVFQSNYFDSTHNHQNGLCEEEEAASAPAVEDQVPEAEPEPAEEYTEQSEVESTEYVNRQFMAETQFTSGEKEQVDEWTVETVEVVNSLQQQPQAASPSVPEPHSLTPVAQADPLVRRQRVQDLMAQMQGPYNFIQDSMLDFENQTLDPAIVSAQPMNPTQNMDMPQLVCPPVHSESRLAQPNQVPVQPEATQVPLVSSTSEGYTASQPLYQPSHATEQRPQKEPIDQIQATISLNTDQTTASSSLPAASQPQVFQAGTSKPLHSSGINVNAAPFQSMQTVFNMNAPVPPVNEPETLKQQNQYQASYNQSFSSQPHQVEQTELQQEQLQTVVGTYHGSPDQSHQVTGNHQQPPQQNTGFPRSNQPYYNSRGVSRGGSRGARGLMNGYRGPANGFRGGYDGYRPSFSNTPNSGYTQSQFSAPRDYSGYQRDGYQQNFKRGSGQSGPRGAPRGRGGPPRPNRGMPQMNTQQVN
Experiment: cell-based or functional assay
Quantity kind: cytotoxic activity (ADCC) against T98G

Quick one: cytotoxic activity (ADCC) against T98G of anti-CAPRIN-1 mouse monoclonal antibody #6 (antibody, V domains shown, Mouse hybridoma antibody; detected with anti-mouse IgG) VH: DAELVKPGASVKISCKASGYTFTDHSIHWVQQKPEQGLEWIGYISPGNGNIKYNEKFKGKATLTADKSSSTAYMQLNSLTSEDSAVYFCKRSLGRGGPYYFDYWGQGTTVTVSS VL: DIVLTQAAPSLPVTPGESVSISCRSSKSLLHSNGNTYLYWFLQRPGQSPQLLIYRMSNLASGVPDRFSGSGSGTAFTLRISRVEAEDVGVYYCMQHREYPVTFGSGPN ?
≥ 12%

Would you kindly share the measured cytotoxic activity (ADCC) against T98G for human-chicken chimeric antibody #1 having the chicken monoclonal antibody #1 variable region (antibody, V domains shown, also called anti-CAPRIN-1 antibody #1; human-chicken chimeric monoclonal antibody (#1); not shown: human IgG1 H-chain constant region; human IgG1 L-chain constant region) VH: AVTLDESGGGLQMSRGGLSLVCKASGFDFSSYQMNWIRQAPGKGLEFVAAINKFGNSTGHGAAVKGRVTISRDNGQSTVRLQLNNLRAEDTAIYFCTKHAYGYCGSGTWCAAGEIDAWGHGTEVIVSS VL: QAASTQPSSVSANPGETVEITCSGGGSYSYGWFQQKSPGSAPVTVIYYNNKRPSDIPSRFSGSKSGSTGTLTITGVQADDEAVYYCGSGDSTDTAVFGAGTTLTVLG ?
18%

Any idea what its cytotoxic activity (ADCC) against T98G is? The binder is anti-CAPRIN-1 mouse monoclonal antibody #4 (antibody, V domains shown) VH: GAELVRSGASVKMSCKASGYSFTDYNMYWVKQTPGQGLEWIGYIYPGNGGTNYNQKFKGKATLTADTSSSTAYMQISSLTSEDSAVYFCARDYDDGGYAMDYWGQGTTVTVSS VL: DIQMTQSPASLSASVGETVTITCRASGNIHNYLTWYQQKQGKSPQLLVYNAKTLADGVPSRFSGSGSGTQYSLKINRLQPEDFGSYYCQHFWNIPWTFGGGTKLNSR
≥ 12%

If you can, please state the reported cytotoxic activity (ADCC) against T98G value of anti-CAPRIN-1 mouse monoclonal antibody #5 (antibody, V domains shown, Mouse hybridoma antibody; detected with anti-mouse IgG) VH: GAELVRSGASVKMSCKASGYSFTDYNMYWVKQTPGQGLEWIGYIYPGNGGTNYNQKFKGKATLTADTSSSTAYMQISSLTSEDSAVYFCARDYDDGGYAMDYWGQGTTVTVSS VL: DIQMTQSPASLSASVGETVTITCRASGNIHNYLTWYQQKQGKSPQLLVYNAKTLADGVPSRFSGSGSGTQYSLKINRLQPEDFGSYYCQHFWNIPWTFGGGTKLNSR .
≥ 12%
